subject_of_test: Poly [ADP-ribose] polymerase 1 (Homo sapiens, UniProt P09874)
Sequence (P09874 whole entry): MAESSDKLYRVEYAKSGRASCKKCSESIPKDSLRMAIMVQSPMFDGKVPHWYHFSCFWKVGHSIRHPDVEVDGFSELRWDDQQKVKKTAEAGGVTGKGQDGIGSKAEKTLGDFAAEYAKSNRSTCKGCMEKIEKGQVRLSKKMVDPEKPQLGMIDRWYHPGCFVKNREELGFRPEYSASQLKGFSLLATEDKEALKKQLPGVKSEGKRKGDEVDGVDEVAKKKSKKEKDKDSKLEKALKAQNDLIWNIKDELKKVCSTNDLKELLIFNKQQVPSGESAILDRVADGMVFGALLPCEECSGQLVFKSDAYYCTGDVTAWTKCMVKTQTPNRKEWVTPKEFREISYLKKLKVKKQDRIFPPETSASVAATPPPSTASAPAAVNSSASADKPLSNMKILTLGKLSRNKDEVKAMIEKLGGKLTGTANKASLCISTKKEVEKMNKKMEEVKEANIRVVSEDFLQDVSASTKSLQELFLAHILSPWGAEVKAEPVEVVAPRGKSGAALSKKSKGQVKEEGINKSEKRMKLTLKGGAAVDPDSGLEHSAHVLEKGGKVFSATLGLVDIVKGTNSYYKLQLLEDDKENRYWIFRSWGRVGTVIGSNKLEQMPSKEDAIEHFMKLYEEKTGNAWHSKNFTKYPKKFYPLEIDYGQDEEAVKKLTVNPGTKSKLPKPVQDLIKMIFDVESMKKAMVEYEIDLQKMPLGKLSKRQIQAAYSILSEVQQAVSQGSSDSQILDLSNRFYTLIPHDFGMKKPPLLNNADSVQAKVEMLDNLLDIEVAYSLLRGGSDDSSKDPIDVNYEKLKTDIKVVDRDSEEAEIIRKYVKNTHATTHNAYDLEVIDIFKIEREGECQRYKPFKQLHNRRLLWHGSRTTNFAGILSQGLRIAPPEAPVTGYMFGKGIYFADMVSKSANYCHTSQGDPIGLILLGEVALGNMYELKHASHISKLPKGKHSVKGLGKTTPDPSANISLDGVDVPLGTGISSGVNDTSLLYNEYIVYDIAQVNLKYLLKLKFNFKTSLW
Checkbox rule: IC50 lower than 0.4 nM = yes; IC50 not lower than 0.4 nM = no.

Check out these entries, answers already filled in.
- chemical_structure: "O=C(c1cc(Cc2n[nH]c(=O)c3ccccc23)ccc1F)N1CCN(c2nc3ccccc3[nH]2)CC1"
  subject_of_test: "Poly [ADP-ribose] polymerase 1 (Homo sapiens, UniProt P09874)"
  category: "yes"
- chemical_structure: "CCOc1ncc(C(N)=O)c2nc(C3CCN(C(=O)c4cc(Cc5n[nH]c(=O)c6ccccc56)ccc4F)CC3)[nH]c12"
  subject_of_test: "Poly [ADP-ribose] polymerase 1 (Homo sapiens, UniProt P09874)"
  category: "no"
- chemical_structure: "COc1ncc(C(N)=O)c2nc(C3CCN(C(=O)c4cc(Cc5n[nH]c(=O)c6ccccc56)ccc4F)CC3)[nH]c12"
  subject_of_test: "Poly [ADP-ribose] polymerase 1 (Homo sapiens, UniProt P09874)"
  category: "no"

Input: Please determine if `O=C(c1cc(Cc2n[nH]c(=O)c3ccccc23)ccc1F)N1CCC(c2nc3ccccc3[nH]2)CC1` is below 0.4 nM in terms of IC50.
Output: no

Input: One more compound: `O=C(c1cc(Cc2n[nH]c(=O)c3ccccc23)ccc1F)N1CCn2c(nc3ccc(F)cc32)C1`
Output: no
